Biological target: Recombinant STAT6 protein (STAT6 (W123-T658)) (Homo sapiens, UniProt P42226)
Construct: Recombinant STAT6 protein (STAT6 (W123-T658))
Sequence (P42226 123-658): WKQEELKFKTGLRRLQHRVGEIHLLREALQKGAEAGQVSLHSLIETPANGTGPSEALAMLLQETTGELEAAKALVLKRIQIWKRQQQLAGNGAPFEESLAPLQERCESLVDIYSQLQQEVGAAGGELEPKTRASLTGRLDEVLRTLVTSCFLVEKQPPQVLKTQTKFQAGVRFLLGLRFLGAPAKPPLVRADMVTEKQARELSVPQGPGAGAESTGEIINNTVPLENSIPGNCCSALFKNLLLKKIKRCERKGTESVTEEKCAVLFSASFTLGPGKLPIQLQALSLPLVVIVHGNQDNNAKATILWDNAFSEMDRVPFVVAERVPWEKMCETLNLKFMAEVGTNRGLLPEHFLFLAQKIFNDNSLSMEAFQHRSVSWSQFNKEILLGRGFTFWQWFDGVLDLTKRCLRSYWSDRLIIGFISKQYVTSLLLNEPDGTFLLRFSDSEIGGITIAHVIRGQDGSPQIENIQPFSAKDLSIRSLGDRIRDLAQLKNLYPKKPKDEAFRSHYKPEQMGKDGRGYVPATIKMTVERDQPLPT
Experiment: STAT6 Fluorescence Polarization (FP) Assay
Format: binding
Conditions: STAT6 (W123-T658) 250 nM, probe 5-FAM-Ap[…]-NH2 2 nM, 45-minute incubation; read-out: STAT6 (FP assay IC50 class)
Procedure: STAT6 Fluorescence Polarization (FP) Assay An FP assay was developed to determine IC50 values for test substances. […] Reaction components were mixed, and FP was measured after 45-minute incubation at room temperature using a Tecan Spark multimode plate reader. FP signal (mP) was plotted against the log concentration of the test substances and IC50 values were calculated by nonlinear regression analysis using GraphPad Prism software. […]
Readout Type: IC50

// solved cases for IC50 follow
>  <Molecule>
Cn1cccc(C2CN(C(=O)[C@@H]3CC[C@@H]4CCC[C@H](NC(=O)c5cc6cc(C(F)P(=O)(O)O)ccc6s5)C(=O)N43)C2)c1=O (stereo partly shown)

>  <Data Value>
3 to 30 µM

$$$$
>  <Molecule>
N#C[C@@H]1[C@@H](c2cncc(Cl)c2)CN(C(=O)[C@@H]2CC[C@@H]3CCCC[C@H](NC(=O)c4cc5cc([C@H](F)P(=O)(O)O)ccc5s4)C(=O)N32)C12CC2 (single isomer, unassigned)

>  <Data Value>
≤ 0.3 µM

$$$$
>  <Molecule>
CC[C@H]1CC[C@H](NC(=O)c2cc3cc([C@H](F)P(=O)(O)O)ccc3s2)C(=O)N2[C@H](CC[C@H]2C(=O)N2CC(c3cnccc3N3CCC3)C2)C1

>  <Data Value>
0.3 to 3 µM

$$$$
>  <Molecule>
CCc1ccncc1C1CN(C(=O)[C@@H]2CC[C@@H]3CCC[C@H](NC(=O)c4cc5cc(C(F)P(=O)(O)O)ccc5s4)C(=O)N32)C1 (stereo partly shown)

>  <Data Value>
3 to 30 µM

$$$$

Enquiry: Reported IC50, molecule O=C(N[C@H]1CCC[C@H]2CC[C@@H](C(=O)N3CC(c4ccnc(N5CCOCC5)c4)C3)N2C1=O)c1cc2cc([C@@H](F)P(=O)(O)O)ccc2s1 (single isomer, unassigned) : ____
Return: 3 to 30 µM
